System: Platelet-derived growth factor receptor beta (Homo sapiens, UniProt P09619) | Read-out: IC50 | Origin: multiple publications
Sequence (P09619 whole entry): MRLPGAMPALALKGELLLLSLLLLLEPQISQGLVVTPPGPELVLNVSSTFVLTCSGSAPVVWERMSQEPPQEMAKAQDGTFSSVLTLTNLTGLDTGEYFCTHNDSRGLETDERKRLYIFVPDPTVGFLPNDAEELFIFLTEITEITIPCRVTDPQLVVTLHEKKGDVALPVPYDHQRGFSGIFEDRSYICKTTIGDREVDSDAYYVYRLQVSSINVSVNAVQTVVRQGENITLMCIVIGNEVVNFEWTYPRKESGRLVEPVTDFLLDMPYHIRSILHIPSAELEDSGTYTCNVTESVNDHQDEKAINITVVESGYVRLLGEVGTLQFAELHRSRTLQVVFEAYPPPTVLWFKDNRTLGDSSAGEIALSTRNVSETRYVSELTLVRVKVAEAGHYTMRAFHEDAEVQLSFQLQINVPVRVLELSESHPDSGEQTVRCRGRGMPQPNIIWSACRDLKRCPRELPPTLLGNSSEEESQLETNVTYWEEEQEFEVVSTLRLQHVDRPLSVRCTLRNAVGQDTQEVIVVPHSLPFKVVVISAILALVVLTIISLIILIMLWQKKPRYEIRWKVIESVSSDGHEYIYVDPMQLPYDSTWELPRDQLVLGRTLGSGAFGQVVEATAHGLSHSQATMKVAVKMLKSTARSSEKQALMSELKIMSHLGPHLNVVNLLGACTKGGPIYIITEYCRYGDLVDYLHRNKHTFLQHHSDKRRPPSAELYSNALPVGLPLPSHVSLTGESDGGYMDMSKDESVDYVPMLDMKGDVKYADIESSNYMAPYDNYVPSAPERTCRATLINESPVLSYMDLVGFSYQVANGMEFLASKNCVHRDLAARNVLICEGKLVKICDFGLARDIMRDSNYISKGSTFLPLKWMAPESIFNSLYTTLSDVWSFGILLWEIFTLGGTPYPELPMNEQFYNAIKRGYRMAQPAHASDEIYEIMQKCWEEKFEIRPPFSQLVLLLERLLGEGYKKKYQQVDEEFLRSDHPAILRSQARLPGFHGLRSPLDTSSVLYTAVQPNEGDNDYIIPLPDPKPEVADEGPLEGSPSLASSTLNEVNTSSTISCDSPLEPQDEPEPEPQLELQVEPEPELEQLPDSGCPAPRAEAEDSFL
measure: IC50

chem_smiles=Nc1nc(Nc2ccc(Cl)cc2)c2cc(CCc3ccccc3)[nH]c2n1 test_result="> 500 µM"
chem_smiles=O=C1Nc2ccccc2/C1=C/c1cc(Br)cs1 test_result="> 100 µM"
chem_smiles=Cc1cn(-c2cc(F)cc(NC(=O)c3ccc(C)c(Nc4nccc(-c5cccnc5)n4)c3)c2)cn1 test_result="> 5 µM"
chem_smiles=Fc1cc(Cl)ccc1Nc1ncnc2[nH]c(CCc3ccccc3)cc12 test_result="> 500 µM"
chem_smiles=CCc1ccc(-c2c(-c3cnc(C)[nH]3)c(=O)[nH]c3ccc(Cl)cc23)cc1 test_result="> 1 µM"
chem_smiles=COc1cc2c(Oc3ccc(NC(=O)C4(c5nnc(-c6ccc(F)cc6)o5)CC4)cc3F)ccnc2cc1OCCCN1CCCCC1 test_result="> 0.2 µM"
